Value source: PubChem BioAssay

Experiment: small-molecule microarray binders of probe aCHRDL2, primary screen, biochemical, biotinylated probe, 635/667 nm fluorescence (AID 1100)
Conditions: higher = more signal
The compounds listed here are annotated with their composite z-score.

CCCCCN1CC=CC23O[C@@H]4C=CCCOC(=O)C4[C@H]2C(=O)N(CCCCCO)[C@@H]3C1=O (stereo partly drawn): 0.249
C=CCOC(=O)[C@@H]1[C@H]2C(=O)O[C@H](c3ccccc3)[C@H](c3ccccc3)N2[C@H](c2ccc(OCCOC(=O)[C@@H]3C[C@@H]4C(=O)NCC(=O)N4[C@@H]3c3ccc(O)cc3)cc2)[C@@]12C(=O)Nc1ccc(I)cc12: -0.201

composite z-score measured on `CCOC(=O)C[C@H]1[C@H](OC(=O)c2ccc(C(=O)c3ccccc3)cc2)[C@@H](NC(=O)c2ccc3ccccc3c2)c2cc(OCCCO)ccc2N1C(=O)Cc1ccc(OC)cc1` = 0.503

###

Assay: small-molecule microarray binders of probe aNog, primary screen, biochemical, biotinylated probe, 635/667 nm fluorescence (AID 1115);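 further: probe is biotinylated aNog protein used at 0.15 µg/mL for 1 h at 4 C; z-score combines 667 nm fluorescence of each spot with its signal to noise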
Conditions: higher = more signal
Param threshold (0.5) applies to composite z-score; output TRUE when value >= threshold, FALSE when value < threshold.

# bool: composite z-score of `C=C(CCCC)/C(=C/C[C@@H](OC(=O)c1ccncc1)c1ccc(OCCO)cc1)c1cc(C(=O)OC)ccc1OC` >= 0.5
FALSE

# bool: composite z-score of CCC(CC)C(O)C1C=CC2C(=O)NC(=O)C2N1Nc1ccccn1 (configuration not stated) >= 0.5
FALSE

# bool: composite z-score of `C=C(CCCC)/C(=C/C[C@H](OC(=O)c1ccncc1)c1ccccc1OCCO)c1cnc2ccccc2c1` >= 0.5
FALSE

###

The compounds listed here are annotated with their composite z-score.
Target: Fibroblast growth factor 10 (Homo sapiens) (UniProt O15520)
Sequence (O15520 whole entry, looked up): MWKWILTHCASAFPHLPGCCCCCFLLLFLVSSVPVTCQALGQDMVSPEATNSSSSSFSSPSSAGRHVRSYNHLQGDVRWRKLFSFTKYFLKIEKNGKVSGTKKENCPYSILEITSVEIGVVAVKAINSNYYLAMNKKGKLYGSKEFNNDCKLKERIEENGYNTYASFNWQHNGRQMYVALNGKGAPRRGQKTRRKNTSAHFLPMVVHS
Assay: FGF10 binders on small-molecule microarrays, primary screen, biochemical, small-molecule microarray, 635 nm fluorescence (AID 1102)
Conditions: FGF10 binding, fluorescence 635 nm, higher = more signal
Would you mind answering with just the numeric figure?

CN1C(=O)C2C=CC(C(O)C#Cc3ccccc3)N(N3CCCCC3)C2C1=O (configuration not stated): 0.945
CO[C@H]1O[C@H](CO)[C@@H](OC(=O)Nc2ccc(Oc3ccccc3)cc2)[C@H](OC(=O)Nc2ccc3c(c2)OCO3)[C@H]1OC(=O)Nc1ccc2c(c1)OCO2: 1.33

composite z-score measured on `Cc1ccc([C@@H]2C[C@@H](Sc3ccccc3)[C@H](C(=O)O)CN2S(=O)(=O)c2ccc(C)cc2)cc1` = 1.37

composite z-score measured on O=C1NC(=O)C2C1C=CC(C(O)c1cc(C(F)(F)F)cc(C(F)(F)F)c1)N2Nc1ccccn1 (configuration not stated) = 0.163

composite z-score measured on `COc1cc2c(cc1OC)CN(C(=O)[C@H]1[C@@H]3C(=O)O[C@@H](c4ccccc4)[C@@H](c4ccccc4)N3[C@@H](c3ccc(O)cc3)[C@]13C(=O)Nc1ccc(C#CCCO)cc13)CC2` = 0.398

composite z-score measured on COc1cc(NN2C(C(O)c3ccco3)C=CC3C(=O)N(c4ccccc4)C(=O)C32)cc(OC)c1OC (configuration not stated) = -0.0151

composite z-score measured on `COc1ccc([Si](C)(C)[C@H]2[C@H](CC(=O)N3Cc4ccccc4C[C@H]3CO)O[C@@]3(C(=O)N(Cc4cccc(N5CCC5=O)c4)c4ccccc43)[C@@H]2C)cc1` = 1.05

###

Experiment: small-molecule microarray binders of probe aWnt5a, primary screen, biochemical, biotinylated probe, 635/667 nm fluorescence (AID 1113);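 further: score merges 667 nm fluorescence intensity with signal-to-noise per printed feature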
Details: higher = more signal
The compounds listed here are annotated with their composite z-score.
Would you mind answering with just the numeric figure?

C=C(CC1([C@@H](NP(=O)(c2ccccc2)c2ccccc2)[C@H]2C[C@@H]2CCCC)CC1)c1ccccc1: 0.186
C[C@H]1C2[C@H](Cc3ccccc3)NC(=O)[C@]23C(=O)N[C@H](Cc2ccccc2)C(=O)N2CCC[C@H]2C(=O)NC/C=C\C/C=C/C3[C@@H]2O[C@]12C (some centres undefined): -0.0165

composite z-score measured on [N-]=[N+]=NCc1ccccc1[C@@H]1OC(c2ccc(OCCCO)cc2)=N[C@]1(Cc1ccccc1)C(=O)NCC(O)CO (some centres undefined) = 0.262

composite z-score measured on `CC(C)OC(=O)C=C1C[C@@H](c2ccccn2)O[C@@H](c2ccccn2)O1` = -0.0607

composite z-score measured on `COCCOC(=O)N1C(=O)[C@@]2(c3ccccc31)[C@H](C(=O)N1CCc3cc(OC)c(OC)cc3C1)[C@H]1C(=O)O[C@H](c3ccccc3)[C@H](c3ccccc3)N1[C@@H]2c1ccc(OCCO)cc1` = -0.147

composite z-score measured on `C[N+](C)(C)CCCCCCNC(=O)[C@@H]1C[C@@H]2C(=O)N[C@@H](Cc3ccccc3)C(=O)N2[C@@H]1c1cccc(OCCO)c1` = -0.107

composite z-score measured on `COC(=O)[C@@]1(Cc2ccc(F)cc2)[C@H]2c3cc(C(=O)N4CCCC4)n(Cc4ccc(S(C)(=O)=O)cc4)c3C[C@H]2CN1C(=O)c1ccccc1` = 0.25

###

Target: Fibroblast growth factor 2 (Homo sapiens) (UniProt P09038)
Sequence (P09038 whole entry, looked up): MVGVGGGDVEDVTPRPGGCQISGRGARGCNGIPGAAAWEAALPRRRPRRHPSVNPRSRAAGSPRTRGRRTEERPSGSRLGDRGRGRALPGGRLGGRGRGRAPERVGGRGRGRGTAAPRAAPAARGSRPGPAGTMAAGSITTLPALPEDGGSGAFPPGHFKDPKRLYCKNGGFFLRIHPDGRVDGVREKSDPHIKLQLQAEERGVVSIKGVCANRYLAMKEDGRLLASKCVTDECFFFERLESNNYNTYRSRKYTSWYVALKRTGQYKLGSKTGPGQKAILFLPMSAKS
Experiment: FGF2 binders on small-molecule microarrays, primary screen, biochemical, small-molecule microarray, 635/667 nm fluorescence (AID 1133)
Settings: small-molecule microarray binding, FGF2, fluorescence 635/667; higher = more signal
The compounds listed here are annotated with their composite z-score.

CCOC(=O)C1=C[C@@H](C(C)(C)C)N(S(=O)(=O)c2ccc(C)cc2)[C@H]1c1ccc(F)cc1: 0.553
COc1ccc([Si](C)(C)[C@@H]2[C@@H](CCO)O[C@]3(C(=O)N(Cc4ccc(N(C=O)c5ccccc5)cc4)c4ccccc43)[C@H]2C)cc1: 0.526
C[N+](C)(C)CCCCCCNC(=O)[C@@H]1C[C@@H]2C(=O)N[C@@H](Cc3ccccc3)C(=O)N2[C@@H]1c1cccc(OCCO)c1: 1.45
COc1ccc(CCNC(=O)[C@@H]2c3ccccc3C(=O)N(Cc3ccccc3Cl)[C@H]2c2ccc(CO)cc2)cc1: 0.187
COC(=O)[C@@]1(Cc2ccccc2)[C@H]2c3cc(C(=O)N4CCCC4)n(Cc4ccc(S(C)(=O)=O)cc4)c3C[C@H]2CN1C(=O)c1ccccc1: -0.771

composite z-score measured on `[N-]=[N+]=NCc1ccccc1C[C@]1(C(=O)N2CCCCC2)N=C(c2ccc(OCCCO)cc2)O[C@H]1c1ccccc1N=[N+]=[N-]` = -0.0521

composite z-score measured on `COCCCNC(=O)[C@@H]1c2ccccc2C(=O)N(Cc2ccccc2Cl)[C@H]1c1ccc(CO)cc1` = 1.04

###

Molecular target: Neurogenic locus notch homolog protein 3 (Homo sapiens) (UniProt Q9UM47)
Sequence (Q9UM47 whole entry, looked up): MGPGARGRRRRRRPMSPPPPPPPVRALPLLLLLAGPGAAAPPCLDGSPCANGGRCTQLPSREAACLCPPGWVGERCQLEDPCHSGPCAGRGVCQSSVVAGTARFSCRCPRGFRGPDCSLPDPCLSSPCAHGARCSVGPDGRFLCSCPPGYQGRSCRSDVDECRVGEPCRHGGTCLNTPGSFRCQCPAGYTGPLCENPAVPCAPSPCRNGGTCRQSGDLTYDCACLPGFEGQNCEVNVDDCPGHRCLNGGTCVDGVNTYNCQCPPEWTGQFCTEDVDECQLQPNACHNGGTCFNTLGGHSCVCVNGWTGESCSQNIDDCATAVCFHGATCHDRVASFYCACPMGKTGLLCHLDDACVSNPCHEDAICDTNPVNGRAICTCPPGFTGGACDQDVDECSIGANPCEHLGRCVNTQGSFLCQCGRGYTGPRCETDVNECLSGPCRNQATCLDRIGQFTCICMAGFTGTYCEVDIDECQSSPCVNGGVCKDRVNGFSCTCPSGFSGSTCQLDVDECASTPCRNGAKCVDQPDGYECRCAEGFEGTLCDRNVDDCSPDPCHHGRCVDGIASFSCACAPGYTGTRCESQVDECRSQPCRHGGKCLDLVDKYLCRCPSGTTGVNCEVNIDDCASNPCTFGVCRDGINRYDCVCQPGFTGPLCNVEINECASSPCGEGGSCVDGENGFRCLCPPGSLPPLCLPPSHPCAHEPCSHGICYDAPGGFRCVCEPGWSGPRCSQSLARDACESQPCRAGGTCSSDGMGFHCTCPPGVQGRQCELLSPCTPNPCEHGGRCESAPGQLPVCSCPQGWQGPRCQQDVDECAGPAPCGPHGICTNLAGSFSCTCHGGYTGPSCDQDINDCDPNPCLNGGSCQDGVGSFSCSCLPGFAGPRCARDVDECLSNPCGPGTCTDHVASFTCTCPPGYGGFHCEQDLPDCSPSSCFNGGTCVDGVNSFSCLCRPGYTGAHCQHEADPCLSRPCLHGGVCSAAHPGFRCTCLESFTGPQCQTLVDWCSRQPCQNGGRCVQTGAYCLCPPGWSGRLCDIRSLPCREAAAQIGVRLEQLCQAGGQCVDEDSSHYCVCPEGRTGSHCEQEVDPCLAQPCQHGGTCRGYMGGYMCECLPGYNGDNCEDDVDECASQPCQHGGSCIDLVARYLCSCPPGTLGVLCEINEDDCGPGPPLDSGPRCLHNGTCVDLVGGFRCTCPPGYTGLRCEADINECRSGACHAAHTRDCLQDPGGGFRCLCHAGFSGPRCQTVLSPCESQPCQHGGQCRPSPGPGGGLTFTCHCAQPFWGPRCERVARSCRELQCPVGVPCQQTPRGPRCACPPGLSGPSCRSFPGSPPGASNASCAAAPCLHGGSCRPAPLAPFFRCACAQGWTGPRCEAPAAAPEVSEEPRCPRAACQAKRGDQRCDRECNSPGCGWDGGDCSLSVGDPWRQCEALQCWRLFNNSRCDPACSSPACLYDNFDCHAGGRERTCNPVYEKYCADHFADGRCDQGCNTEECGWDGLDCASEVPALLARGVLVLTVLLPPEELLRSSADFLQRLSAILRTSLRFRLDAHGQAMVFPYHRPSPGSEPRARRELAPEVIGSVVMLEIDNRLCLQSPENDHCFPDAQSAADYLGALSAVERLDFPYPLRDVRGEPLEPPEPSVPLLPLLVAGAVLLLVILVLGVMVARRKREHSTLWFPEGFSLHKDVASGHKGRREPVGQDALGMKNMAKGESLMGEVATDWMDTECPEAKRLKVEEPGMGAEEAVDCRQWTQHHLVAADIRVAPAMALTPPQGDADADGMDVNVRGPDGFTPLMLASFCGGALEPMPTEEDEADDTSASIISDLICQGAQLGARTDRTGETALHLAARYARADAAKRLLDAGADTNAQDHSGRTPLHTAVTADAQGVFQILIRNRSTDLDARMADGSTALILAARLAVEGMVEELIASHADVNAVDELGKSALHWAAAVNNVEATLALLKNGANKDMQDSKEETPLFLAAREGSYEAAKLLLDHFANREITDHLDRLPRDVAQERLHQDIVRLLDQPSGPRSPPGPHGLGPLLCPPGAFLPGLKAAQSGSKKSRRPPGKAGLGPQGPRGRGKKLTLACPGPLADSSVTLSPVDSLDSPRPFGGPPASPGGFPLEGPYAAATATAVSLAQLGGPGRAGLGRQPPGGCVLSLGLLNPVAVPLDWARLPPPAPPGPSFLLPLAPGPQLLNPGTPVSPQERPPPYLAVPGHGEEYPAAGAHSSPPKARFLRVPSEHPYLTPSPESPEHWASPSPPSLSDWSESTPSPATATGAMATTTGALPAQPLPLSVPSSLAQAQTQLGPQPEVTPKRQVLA
Assay: NOTCH3 binders on small-molecule microarray, primary screen, biochemical, 635/667 nm fluorescence (AID 1096)
Settings: NOTCH3 binding, 635 nm fluorescence, higher = more signal
metric.name: composite z-score
Would you mind answering with just the numeric figure?

OCCCC1=CC(c2cccs2)N(Cc2cc3c(cc2Br)OCO3)CC1 (centres undefined): 0.208

composite z-score measured on `C[N+](C)(C)CCCCNC(=O)[C@@H]1C[C@@H]2C(=O)N[C@@H](Cc3ccccc3)C(=O)N2[C@@H]1c1cccc(OCCO)c1` = -0.0417

composite z-score measured on `COc1cc2c(cc1OC)CN(C(=O)[C@@H]1[C@H]3C(=O)O[C@H](c4ccccc4)[C@H](c4ccccc4)N3[C@H](c3ccc(O)cc3)[C@@]13C(=O)Nc1ccccc13)CC2` = 0.347

composite z-score measured on `C=C(/C(=C/C[C@H](OC(C)=O)c1ccc(CO)o1)c1cc(C(=O)OC)ccc1OC)C(C)C` = 0.368

###

Test: COS7 lysate on small-molecule microarray, probe aHis, 635 nm (AID 1123);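 further: z-score combines 667nm fluorescence intensity with signal-to-noise per printed compound spot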
Settings: COS7 cell lysate, fluorescence, higher = more signal
The compounds listed here are annotated with their composite z-score.
Would you mind answering with just the numeric figure?

# example entries with known answers
CCC[C@@H]1C[C@@]1(CCC)[C@@H](NS(=O)(=O)c1cccc2cccnc12)c1ccc(Cl)cc1: 1.81
COCCOC(=O)N1C(=O)[C@@]2(c3cc(C#CCNC(N)=O)ccc31)[C@H](C(=O)N1CCN(c3ncccn3)CC1)[C@H]1C(=O)O[C@H](c3ccccc3)[C@H](c3ccccc3)N1[C@@H]2c1ccc(OCCO)cc1: 1.48

Let us move to another entry and its composite z-score.
composite z-score measured on `CCOC(=O)C[C@H]1[C@H](OC(=O)c2ccc(C(=O)c3ccccc3)cc2)[C@@H](NC(=O)c2ccccc2)c2cc(OCCCO)ccc2N1C(=O)Cc1ccc(OC)cc1` = 0.445

###

Test: Plasmodium falciparum growth inhibition, primary screen, strain 3D7, DAPI fluorescence, 100 nL (AID 1184);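 further: parasites grown inside human red blood cells in medium with human serum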
Settings: P. falciparum 3D7 growth, 3 d, higher = more signal
metric.name: z-score
Would you mind answering with just the numeric figure?

# example entries with known answers
CC(=O)n1cc(C(O)C2C=CC3C(=O)N(c4ccccc4)C(=O)C3N2Nc2ccc([N+](=O)[O-])cc2)c2ccccc21 (stereo unspecified): -0.306
Cc1ccc(S[C@]2(C(=O)NC3CC3)CC(=O)N(Cc3ccccc3)[C@@H]2c2ccc(CO)cc2I)cc1: -0.0873
CC(C)(C)OC(=O)CC[C@]1(C(=O)N2CCOCC2)N=C(c2ccc(OCCCO)cc2)O[C@H]1c1ccccc1N=[N+]=[N-]: -2.28
N#Cc1ccc(NN2C(C(O)C(c3ccccc3)c3ccccc3)C=CC3C(=O)N(c4ccccc4)C(=O)C32)cc1 (stereo unspecified): -0.231
COc1ccc(C#Cc2ccc3c(c2)[C@]2(C(=O)N3)[C@H](C(=O)Nc3nc4ccccc4s3)[C@H]3C(=O)O[C@H](c4ccccc4)[C@H](c4ccccc4)N3[C@@H]2c2ccc(O)cc2)cc1: -0.435
C=CCNC(=O)[C@@H]1[C@H]2C(=O)O[C@H](c3ccccc3)[C@H](c3ccccc3)N2[C@H](c2ccccc2OCCO)[C@@]12C(=O)N(C(=O)OCCOC)c1ccccc12: -1.16

z-score measured on `C=CC[C@@]12N=C(c3ccc(OCCCO)cc3)O[C@@H]1c1ccccc1N(C)C2=O` = -1.9

z-score measured on `CO[C@H]1O[C@H](CO)[C@@H](OC(=O)Nc2cccc(F)c2)[C@H](OC(=O)Nc2ccccc2)[C@@H]1OC(=O)Nc1ccccc1` = -1.26
